Numbers sourced from the supplement of paper PMC11451515.

Test system: SEM cells
ASSAY INFO: cell viability relative to DMSO control; higher = less cytotoxic
CONDITION: HPLM + 10% dialyzed FBS; 48 h; 0.000781 µM
Consider the cut-off 90%. If the recorded cell viability is strictly smaller, the label is yes; if not, the label is no.

{"INPUT SMILES": "Cc1cccc(Nc2nc(N[C@@H]3CCCC[C@@H]3N)ncc2C(N)=O)c1", "LABEL VALUE": "no"}

Then this molecule:
input: Hello, is cell viability of the following molecule strictly smaller than 90%? O=C(O)CCc1ccc(NCc2cccc(Oc3ccccc3)c2)cc1
output: yes

* * *

System: NOMO1
ASSAY INFO: cell viability relative to DMSO control; higher = less cytotoxic
CONDITION: RPMI 5 mM glucose + 10% dialyzed FBS; 48 h; 46.1 µM
Below is a list of entries, each paired with its recorded cell viability value.
Just the number in %, nothing appended.

Below, each entry is followed by its recorded cell viability result.
{"MOLECULE": "CC1(C)CCC(=C(\\C1)C2=CC=C(Cl)C=C2)/CN3CCN(CC3)C4=CC(=C(C=C4)C(=O)N[S+]([O-])(=O)C5=CC=C(NCC6CCOCC6)C(=C5)[N+]([O-])=O)OC7=CN=C8[NH]C=CC8=C7", "cell viability / %": 23.9}
{"MOLECULE": "COc1cc([C@@H]2c3cc4c(cc3[C@H](O)[C@H]3COC(=O)[C@H]23)OCO4)cc(OC)c1OC", "cell viability / %": 6.11}
{"MOLECULE": "CO[C@H]1C[C@H]2OC[C@@]2(OC(C)=O)[C@H]3[C@H](OC(=O)C4=CC=CC=C4)[C@]5(O)C[C@H](OC(=O)[C@H](O)[C@@H](NC(=O)OC(C)(C)C)C6=CC=CC=C6)/C(=C(/[C@@H](OC)C(=O)[C@]13C)C5(C)C)C", "cell viability / %": 7.39}

input: Which cell viability is reported with NOMO1 for this entry: COC(=O)[C@@H]1CC2=CC(=O)CC[C@]2(C)[C@@]23O[C@@H]2C[C@@]2(C)[C@@H](CC[C@@]24CCC(=O)O4)[C@H]13 ?
output: 120

input: What would you report for O=C(O)C(=O)Nc1cccc(-c2nnn[nH]2)c1 ?
output: 120

input: What would you report for CN(C)[C@H]\1[C@@H]2[C@@H](O)[C@H]3\C(=C(O)/[C@]2(O)C(=O)\C(=C1O)C(N)=O)C(=O)C4=C(C=CC=C4O)[C@@]3(C)O ?
output: 30.1

input: What would you report for CC(=O)OCC(CCn1cnc2cnc(N)nc21)COC(C)=O ?
output: 90.3

* * *

System: SEM cells
ASSAY INFO: cell viability relative to DMSO control; higher = less cytotoxic
CONDITION: RPMI 5 mM glucose + 10% FBS; 48 h; 0.000781 µM
Below is a list of entries, each paired with its recorded cell viability value.
Just the number in %, nothing appended.

Below, each entry is followed by its recorded cell viability result.
{"COMPOUND": "CCCCCCCN(CC)CCCC(O)c1ccc(NS(C)(=O)=O)cc1.CCCCCCCN(CC)CCCC(O)c1ccc(NS(C)(=O)=O)cc1.O=C(O)/C=C/C(=O)O (configuration not stated)", "cell viability / %": 83.9}
{"COMPOUND": "CN1C(=O)C(=C/2N(C(=O)N(C3CC3)C(=O)C2=C1/NC4=CC=C(I)C=C4F)C5=CC=CC(=C5)NC(C)=O)\\C", "cell viability / %": 107}
{"COMPOUND": "CC1(C)CCC(=C(\\C1)C2=CC=C(Cl)C=C2)/CN3CCN(CC3)C4=CC(=C(C=C4)C(=O)N[S+]([O-])(=O)C5=CC=C(NCC6CCOCC6)C(=C5)[N+]([O-])=O)OC7=CN=C8[NH]C=CC8=C7", "cell viability / %": 124}
{"COMPOUND": "CC[P](CC)(CC)=[Au][S][C@@H]1O[C@H](COC(C)=O)[C@@H](OC(C)=O)[C@H](OC(C)=O)[C@H]1OC(C)=O", "cell viability / %": 106}
{"COMPOUND": "CN1C(=O)\\C(=C/C2=C1N=C(NC3CCOCC3)N=C2)OC4=C(F)C=C(F)C=C4", "cell viability / %": 112}
{"COMPOUND": "O=C(Nc1cccc2c(=O)cc(-c3nnn[nH]3)oc12)c1ccc(OCCCCc2ccccc2)cc1", "cell viability / %": 76.6}

input: Entry CC(C)N(CCCNC(=O)Nc1ccc(C(C)(C)C)cc1)C[C@H]1O[C@@H](n2cc(Br)c3c(N)ncnc32)[C@H](O)[C@@H]1O : reported cell viability = ?
output: 83.1

* * *

Tested on: SEM cells
ASSAY INFO: cell viability relative to DMSO control; higher = less cytotoxic
CONDITION: RPMI 5 mM glucose + 10% dialyzed FBS; 48 h; 0.00702 µM
REPORTED PROPERTY: cell viability (%)
Just the number in %, nothing appended.

Below, each entry is followed by its recorded cell viability result.
{"MOLECULE": "COc1cc([S+](C)(=O)[O-])ccc1Nc1nc2ccc(-c3ccc(NC(=O)[C@H](C)c4ccc(F)cc4)cc3)cn2n1", "cell viability / %": 108}
{"MOLECULE": "N[S+](=O)([O-])c1cc2c(cc1Cl)NCN[S+]2(=O)[O-]", "cell viability / %": 112}
{"MOLECULE": "O=C1C(CCC(O)c2ccc(F)cc2)C(c2ccc(O)cc2)N1c1ccc(F)cc1 (configuration not stated)", "cell viability / %": 121}
{"MOLECULE": "COc1c(C)c2c(c(O)c1C/C=C(\\C)CCC(=O)OCCN1CCOCC1)C(=O)OC2", "cell viability / %": 101}
{"MOLECULE": "CN1CCN(CC1)C/2=N/C3=CC=CC=C3NC4=C2C=C(C)S4", "cell viability / %": 105}
{"MOLECULE": "CC(C)N(CCCNC(=O)Nc1ccc(C(C)(C)C)cc1)C[C@H]1O[C@@H](n2cc(Br)c3c(N)ncnc32)[C@H](O)[C@@H]1O", "cell viability / %": 98.9}
{"MOLECULE": "OC[C@H]1O[C@H](C[C@@H]1O)N2\\C=C(\\I)C(=O)NC2=O", "cell viability / %": 92}
{"MOLECULE": "C=C1C(=O)O[C@@H]2[C@H]3O[C@]3(C)CC/C=C(\\C)CC[C@@H]12", "cell viability / %": 102}

input: Entry O=C(c1ccc(C(=O)N2CCC(N3CCCC3)CC2)c(Nc2ccccc2)c1)N1CCC(N2CCCC2)CC1 : reported cell viability = ?
output: 102

input: What would you report for CNC(=O)c1cc(Oc2ccc(NC(=O)Nc3ccc(Cl)c(C(F)(F)F)c3)c(F)c2)ccn1 ?
output: 82.1

input: What would you report for COC1=C(CC=C(C)C)C2=C(\C=C/C(=O)O2)C=C1 ?
output: 121

input: What would you report for C[C@H]1CN(C[C@@H](C)N1)C2=C(F)C3=C(C(=C2F)N)C(=O)\C(=C/N3C4CC4)C(O)=O ?
output: 134

input: What would you report for CCOC\1=C(/C(=O)NC2=CC=C(OC3=C(Cl)C(=NC=C3)N)C(=C2)F)C(=O)N(\C=C1)C4=CC=C(F)C=C4 ?
output: 96

input: What would you report for NC(=O)Cc1cccc(C(=O)c2ccccc2)c1N ?
output: 101

input: What would you report for COc1ccccc1OCC(O)CN1CCN(CC(=O)Nc2c(C)cccc2C)CC1 (configuration not stated) ?
output: 114

input: What would you report for O=C(O)c1nn(Cc2ccc(Cl)cc2Cl)c2ccccc12 ?
output: 89.1

input: What would you report for NC(=O)[C@@H](CCC(F)(F)F)N(Cc1ccc(-c2ncon2)cc1F)[S+](=O)([O-])c1ccc(Cl)cc1 ?
output: 98.2

* * *

System: P12-Ichikawa
ASSAY INFO: cell viability relative to DMSO control; higher = less cytotoxic
CONDITION: HPLM + 10% dialyzed FBS; 48 h; 0.00234 µM
Below is a list of entries, each paired with its recorded cell viability value.
Just the number in %, nothing appended.

Below, each entry is followed by its recorded cell viability result.
{"COMPOUND": "COc1ccc(CC2SC(=O)NC2=O)cc1C(=O)NCc1ccc(C(F)(F)F)cc1 (configuration not stated)", "VALUE UNIT": "%", "cell viability": 84.7}
{"COMPOUND": "CC(=O)O[C@@]12CO[C@@H]1C[C@H](O)[C@]3(C)[C@@H]2[C@H](OC(=O)C4=CC=CC=C4)[C@]5(O)C[C@H](O)/C(=C(/[C@@H](O)C3=O)C5(C)C)C", "VALUE UNIT": "%", "cell viability": 106}
{"COMPOUND": "O=C(c1ccc(C(=O)N2CCC(N3CCCC3)CC2)c(Nc2ccccc2)c1)N1CCC(N2CCCC2)CC1", "VALUE UNIT": "%", "cell viability": 103}
{"COMPOUND": "CC1(C)CCC(=C(\\C1)C2=CC=C(Cl)C=C2)/CN3CCN(CC3)C4=CC(=C(C=C4)C(=O)N[S+]([O-])(=O)C5=CC=C(NCC6CCOCC6)C(=C5)[N+]([O-])=O)OC7=CN=C8[NH]C=CC8=C7", "VALUE UNIT": "%", "cell viability": 108}
{"COMPOUND": "CN1C(=O)\\C(=C/C2=C1N=C(NC3CCOCC3)N=C2)OC4=C(F)C=C(F)C=C4", "VALUE UNIT": "%", "cell viability": 96.2}
{"COMPOUND": "CN1CCC(=C2c3ccccc3CCc3sccc32)CC1", "VALUE UNIT": "%", "cell viability": 108}

Note: attention shifts to another entry.
input: Entry Cc1nc(C(=O)NCC(=O)O)c(O)c2ccc(Oc3ccccc3)cc12 : reported cell viability = ?
output: 97.3
